The reported numbers originate from patent US20110086806A1.

- subject of test: T1, recombinant human IL-23R/Fc chimera (R&D Systems) (human, UniProt Q5VWK5 24-355)
- T1 construct: Bought; also called rhIL23RFc
- T1 sequence (looked up): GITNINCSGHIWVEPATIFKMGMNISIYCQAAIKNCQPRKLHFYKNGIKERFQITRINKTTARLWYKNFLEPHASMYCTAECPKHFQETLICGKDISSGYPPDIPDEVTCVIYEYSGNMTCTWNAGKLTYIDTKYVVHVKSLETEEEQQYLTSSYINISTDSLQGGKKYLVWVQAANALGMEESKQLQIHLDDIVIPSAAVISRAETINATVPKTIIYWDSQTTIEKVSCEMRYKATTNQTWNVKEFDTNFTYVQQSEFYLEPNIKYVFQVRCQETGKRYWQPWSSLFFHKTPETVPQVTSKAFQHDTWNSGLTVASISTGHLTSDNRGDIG
- protocol text: SPR
Values of koff greater than or equal to 0.0004 s⁻¹ map to true (1); values below map to false (0).

Hi team, for 056-53.H7H ATRIMER complex (designed binder, Homotrimer of this chain (ATRIMER complex)., not shown: A possible extra N-terminal Ser from the ompA junction is left out) EPPTQKPKKIVNAKKDVVNTKMFEELKSRLDTLAQEVALLKEQQALQTVCLKGTKVHMKCFLAFTQTKTFHEASEDCISRGGTLSTPQTGSENDALYEYLRQSVGNEAEIWLGLNGSSVSDVWVDMTGARIAYKNWETEITAQPDGGFGYFGENCAVLSGAANGKWFDKRCRDQLPYICQFGIV , is the recorded koff at or above 0.0004 s⁻¹?
false (0)

Hi team, for 056-40.A3C ATRIMER complex (designed binder, Homotrimer of this chain (ATRIMER complex)., not shown: A possible extra N-terminal Ser from the ompA junction is left out) EPPTQKPKKIVNAKKDVVNTKMFEELKSRLDTLAQEVALLKEQQALQTVCLKGTKVHMKCFLAFTQTKTFHEASEDCISRGGTLSTPQTGSENDALYEYLRQSVGNEAEIWLGLNGSATTATWVDMTGARIAYKNWETEITAQPDGGFGYFGENCAVLSGAANGKWFDKRCRDQLPYICQFGIV , is the recorded koff at or above 0.0004 s⁻¹?
false (0)

Hi team, for 001-87.A8E monomeric CTLD (designed binder, C-terminal tag not specified) ALQTVCLKGTKVHMKCFLAFTQTKTFHEASEDCISRGGTLSTPQTGSENDALYEYLRQSVGNEAEIWLGLNANPAQDLWVDMTGARIAYKNWETEITAQPDGGFGVWGENCAVLSGAANGKWFDKRCRDQLPYICQFGIV , is the recorded koff at or above 0.0004 s⁻¹?
true (1)

Hi team, for 105-20-2F12 ATRIMER complex (designed binder, ATRIMER complex: homotrimer of three copies of this chain, joined by the tetranectin coiled coil, not shown: C-terminal tag: Myc/His (pANA4) or HA-StrepII (pANA10)) EPPTQKPKKIVNAKKDVVNTKMFEELKSRLDTLAQEVALLKEQQALQTVCLKGTKVHMKCFLAFTQTKTFHEASEDCISRGGTLSTPQTGSENDALYEYLRQSVGNEAEIWLGLNGSKLTDTWVDMTGARIAYKNWETEITAQPDGGFGYFGENCAVLSGAANGKWFDKRCRDQLPYICQFGIV , is the recorded koff at or above 0.0004 s⁻¹?
true (1)
